- target-entity: GABA-A receptor; alpha-1/beta-3/gamma-2 (Homo sapiens, UniProt P14867+P18507+P28472)
- Sequence (P14867 whole entry): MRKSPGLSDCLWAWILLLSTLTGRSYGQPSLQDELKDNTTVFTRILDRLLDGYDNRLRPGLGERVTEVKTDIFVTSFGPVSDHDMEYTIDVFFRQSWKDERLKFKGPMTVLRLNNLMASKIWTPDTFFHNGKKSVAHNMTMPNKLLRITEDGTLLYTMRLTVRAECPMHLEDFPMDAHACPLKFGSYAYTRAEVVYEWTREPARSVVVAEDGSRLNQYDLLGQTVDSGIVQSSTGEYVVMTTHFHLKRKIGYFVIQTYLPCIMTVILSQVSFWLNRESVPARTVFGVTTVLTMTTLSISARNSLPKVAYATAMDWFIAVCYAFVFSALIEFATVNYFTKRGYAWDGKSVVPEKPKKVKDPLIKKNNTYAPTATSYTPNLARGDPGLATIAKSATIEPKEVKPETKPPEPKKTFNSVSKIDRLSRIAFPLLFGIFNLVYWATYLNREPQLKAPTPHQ
- Sequence (P18507 whole entry): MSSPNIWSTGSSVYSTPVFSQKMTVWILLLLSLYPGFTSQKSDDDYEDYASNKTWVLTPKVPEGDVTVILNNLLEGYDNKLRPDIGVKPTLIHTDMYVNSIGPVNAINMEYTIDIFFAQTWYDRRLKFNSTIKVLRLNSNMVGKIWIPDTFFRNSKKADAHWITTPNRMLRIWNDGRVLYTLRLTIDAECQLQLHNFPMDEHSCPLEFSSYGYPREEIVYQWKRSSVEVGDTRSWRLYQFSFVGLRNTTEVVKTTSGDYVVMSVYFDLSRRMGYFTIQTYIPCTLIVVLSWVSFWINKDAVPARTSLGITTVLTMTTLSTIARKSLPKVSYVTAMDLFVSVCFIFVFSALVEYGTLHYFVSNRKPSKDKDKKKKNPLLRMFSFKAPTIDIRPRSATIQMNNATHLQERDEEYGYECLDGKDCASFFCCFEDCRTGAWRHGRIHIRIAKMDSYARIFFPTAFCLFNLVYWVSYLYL
- Sequence (P28472 whole entry): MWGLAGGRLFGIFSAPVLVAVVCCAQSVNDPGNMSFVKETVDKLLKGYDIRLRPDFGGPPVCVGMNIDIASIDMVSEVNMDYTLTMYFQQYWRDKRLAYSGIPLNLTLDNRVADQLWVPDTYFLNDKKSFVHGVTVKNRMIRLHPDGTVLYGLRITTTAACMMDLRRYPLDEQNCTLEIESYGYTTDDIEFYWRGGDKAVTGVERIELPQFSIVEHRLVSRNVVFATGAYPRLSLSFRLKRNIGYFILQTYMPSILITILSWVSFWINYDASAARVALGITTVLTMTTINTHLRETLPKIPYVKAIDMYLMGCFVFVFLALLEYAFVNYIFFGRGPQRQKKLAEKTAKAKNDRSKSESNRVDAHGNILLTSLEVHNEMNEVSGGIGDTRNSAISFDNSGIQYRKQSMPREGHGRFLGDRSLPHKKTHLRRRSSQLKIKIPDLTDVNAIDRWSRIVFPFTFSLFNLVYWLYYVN
- protocol-text: GABA-mimetic action on Oocytes expressing human alpha-1-beta-3-gamma-2L GABA-A receptor subunits at >=100 uM
outcome-measure: EC50 (µM)
Just the number please, in µM, no unit attached.

Consider the compound CC(C)c1cccc(C(C)C)c1O [PROPOFOL] and give its recorded EC50. 50
